# Tested on: Aspergillus terreus
# Procedure Details: Antimicrobial activity against Aspergillus terreus MTCC 1782 at 500 ug/ml after 72 hrs by cup plate method
# Assay type: functional
# Measurement Context: MTCC 1782, 72 h, read-out: IZ
Assay Readout: zone of inhibition at 500 µg/mL (mm)

{"columns": ["Compound", "Target", "Assay Readout", "Recorded Number"],
 "data": [
  ["Cc1ccc2[nH]c(-c3ccccc3)c(C3C=C(c4ccccc4)OC(N)=C3C#N)c2c1 (configuration not stated)", "Aspergillus terreus", "zone of inhibition at 500 µg/mL", 6],
  ["Nc1nc(=S)[nH]c2c1C(c1c(-c3ccccc3)[nH]c3ccccc13)C=C(c1ccc(Cl)cc1)O2 (configuration not stated)", "Aspergillus terreus", "zone of inhibition at 500 µg/mL", 8],
  ["Cc1ccc(C2=CC(c3c(-c4ccccc4)[nH]c4ccccc34)c3c(N)nc(=O)[nH]c3O2)cc1 (configuration not stated)", "Aspergillus terreus", "zone of inhibition at 500 µg/mL", 3],
  ["Cc1ccc(C2=CC(c3c(-c4ccccc4)[nH]c4ccccc34)c3c(N)nc(=S)[nH]c3O2)cc1 (configuration not stated)", "Aspergillus terreus", "zone of inhibition at 500 µg/mL", 6],
  ["Cc1ccc(C2=CC(c3c(-c4ccccc4)[nH]c4ccc(C)cc34)c3c(N)nc(=S)[nH]c3O2)cc1 (configuration not stated)", "Aspergillus terreus", "zone of inhibition at 500 µg/mL", 5],
  ["O=c1[nH]cnc2c1C(c1c(-c3ccccc3)[nH]c3ccccc13)C=C(c1ccc(Cl)cc1)O2 (configuration not stated)", "Aspergillus terreus", "zone of inhibition at 500 µg/mL", 6],
  ["N#Cc1c(N)c2c(N)c3c(nc2oc1=O)OC(c1ccc(Cl)cc1)=CC3c1c(-c2ccccc2)[nH]c2ccccc12 (configuration not stated)", "Aspergillus terreus", "zone of inhibition at 500 µg/mL", 10],
  ["N#CC1=C(N)OC(c2ccccc2)=CC1c1c(-c2ccccc2)[nH]c2ccc(Cl)cc12 (configuration not stated)", "Aspergillus terreus", "zone of inhibition at 500 µg/mL", 9],
  ["Cc1ccc(C2=CC(c3c(-c4ccccc4)[nH]c4ccc(Cl)cc34)c3c(nc4oc(=O)c(C#N)c(N)c4c3N)O2)cc1 (configuration not stated)", "Aspergillus terreus", "zone of inhibition at 500 µg/mL", 3],
  ["Cc1ccc(C2=CC(c3c(-c4ccccc4)[nH]c4ccc(Cl)cc34)c3c(nc[nH]c3=O)O2)cc1 (configuration not stated)", "Aspergillus terreus", "zone of inhibition at 500 µg/mL", 8],
  ["Nc1nc(=O)[nH]c2c1C(c1c(-c3ccccc3)[nH]c3ccccc13)C=C(c1ccccc1)O2 (configuration not stated)", "Aspergillus terreus", "zone of inhibition at 500 µg/mL", 6],
  ["Cc1ccc2[nH]c(-c3ccccc3)c(C3C=C(c4ccc(Cl)cc4)Oc4[nH]c(=S)nc(N)c43)c2c1 (configuration not stated)", "Aspergillus terreus", "zone of inhibition at 500 µg/mL", 3],
  ["Cc1ccc(C2=CC(c3c(-c4ccccc4)[nH]c4ccc(Cl)cc34)c3c(N)nc(=O)[nH]c3O2)cc1 (configuration not stated)", "Aspergillus terreus", "zone of inhibition at 500 µg/mL", 8],
  ["Cc1ccc(C2=CC(c3c(-c4ccccc4)[nH]c4ccccc34)c3c(nc[nH]c3=O)O2)cc1 (configuration not stated)", "Aspergillus terreus", "zone of inhibition at 500 µg/mL", 8],
  ["O=c1[nH]cnc2c1C(c1c(-c3ccccc3)[nH]c3ccccc13)C=C(c1ccccc1)O2 (configuration not stated)", "Aspergillus terreus", "zone of inhibition at 500 µg/mL", 9],
  ["Nc1nc(=O)[nH]c2c1C(c1c(-c3ccccc3)[nH]c3ccccc13)C=C(c1ccc(Cl)cc1)O2 (configuration not stated)", "Aspergillus terreus", "zone of inhibition at 500 µg/mL", 6],
  ["Cc1ccc(C2=CC(c3c(-c4ccccc4)[nH]c4ccc(Cl)cc34)C(C#N)=C(N)O2)cc1 (configuration not stated)", "Aspergillus terreus", "zone of inhibition at 500 µg/mL", 5]
]}
